The measurements presented in this section are drawn from patent US7615651B2.

biological target: opioid receptor delta (Homo sapiens, UniProt P41143); construct: expressed in transfected cells; experiment: GTPγ[35S] binding assay, antagonism of BW-373U86; type: biochemical; settings: read-out: Delta functional Ki (GTPγ[35S] binding)
Sequence (P41143 whole entry): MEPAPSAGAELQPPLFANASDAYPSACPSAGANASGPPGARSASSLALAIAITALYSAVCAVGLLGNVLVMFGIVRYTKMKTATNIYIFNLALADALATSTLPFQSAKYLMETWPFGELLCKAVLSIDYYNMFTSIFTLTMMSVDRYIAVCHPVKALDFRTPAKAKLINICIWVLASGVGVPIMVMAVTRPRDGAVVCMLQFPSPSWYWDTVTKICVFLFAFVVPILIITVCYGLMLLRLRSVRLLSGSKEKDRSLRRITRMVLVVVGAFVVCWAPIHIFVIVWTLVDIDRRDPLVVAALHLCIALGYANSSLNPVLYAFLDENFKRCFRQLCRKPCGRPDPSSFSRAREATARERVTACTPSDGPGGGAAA
Structures can show the parent of a compound that is named as a salt.
REPORTED_PROPERTY: Ki (nM)
Report only the number, with the unit nM understood.

Which Ki is reported for this compound? Cc1cc(C(N)=O)ccc1-c1ccc(CNC2Cc3ccccc3C2)c(OCc2ccccc2)c1 [4B-86]
0.0438

Now consider Cc1cc(C(N)=O)ccc1-c1cc(F)c(CNCC2CCOCC2)c(F)c1 [4B-59] and answer again.
19.1

Now consider NC(=O)c1ccc(-c2ccc(CNC[C@H]3CCCO3)cc2Cl)c(Cl)c1 [4B-78] and answer again.
18.8

Now consider CC(C)CCNCc1ccc(-c2ccc(C(N)=O)cc2Cl)c(F)c1 [4B-61] and answer again.
12.6

Now consider Cc1cc(C(N)=O)ccc1-c1c(C)cc(CNC2Cc3ccccc3C2)cc1Cl [4B-84] and answer again.
0.0778

Now consider Cc1cc(C(N)=O)ccc1-c1cc(F)c(CNCCC(C)C)cc1F [4B-74] and answer again.
4.8

Now consider CCc1cc(C(N)=O)ccc1-c1c(C)cc(CNCCC2CCOCC2)cc1C [4B-76] and answer again.
0.501

Now consider Cc1cc(C(N)=O)ccc1-c1c(C)cc(CNCCC(C)C)cc1Cl [4B-83] and answer again.
1.66

Now consider CCc1cc(C(N)=O)ccc1-c1cc(F)c(CNCCC(C)C)c(F)c1 [4B-81] and answer again.
15.2

Now consider Cc1cc(C(N)=O)ccc1-c1cc(F)c(CN[C@H](C)c2ccccn2)c(F)c1 [4B-53] and answer again.
3.74

Now consider NC(=O)c1ccc(-c2ccc(CNCCC3CCOCC3)cc2Cl)c(Cl)c1 [4B-67] and answer again.
2.95

Now consider CS(=O)(=O)Nc1ccc(-c2ccc(CNC3Cc4ccccc4C3)c(F)c2)cc1 [8B-02] and answer again.
39.8

Now consider CC(C)CCNCc1ccc(-c2ccc(C(N)=O)cc2Cl)cc1F [4B-64] and answer again.
5.64

Now consider NC(=O)c1cccc(-c2ccc(CN[C@H]3c4ccccc4C[C@H]3O)cc2Cl)c1 [6A-03] and answer again.
35.9

Now consider Cc1ncsc1CCNCc1ccc(-c2cccc(C(N)=O)c2)c(Cl)c1 [6A-08] and answer again.
4.92

Now consider Cc1cc(C(N)=O)ccc1-c1ccc(CNCC2Cc3ccccc3C2)cc1 [4B-35] and answer again.
0.687

Now consider Cc1cc(-c2nnc[nH]2)ccc1-c1ccc(C[NH2+]CCC(C)C)cc1 [E7-01, hydrochloride] and answer again.
11

Now consider Cc1cc(CNCC2CCOCC2)ccc1-c1ccc(C(N)=O)cc1C [4B-71] and answer again.
6.2

Now consider Cc1cc(C(N)=O)ccc1-c1cc(F)c(CNC[C@@H]2CCCO2)c(F)c1 [4B-55] and answer again.
19

Now consider CC(C)CCNCc1ccc(-c2ccc(-c3ncn[nH]3)cc2C(F)(F)F)cc1 [7B-05] and answer again.
29.7

Now consider Cc1cc(C(N)=O)ccc1-c1ccc(CNCC2CCc3ccccc3O2)cc1 (stereo not drawn) [4B-36] and answer again.
0.453

Now consider Cc1cc(C)n(CC(C)NCc2ccc(-c3cccc(C(N)=O)c3)c(Cl)c2)n1 (stereo not drawn) [6A-05] and answer again.
17.6

Now consider CC(C)CCNCc1ccc(-c2ccc(C(N)=O)cc2OCc2ccccc2)cc1 [4B-45] and answer again.
44.6

Now consider Cc1cc(-c2ccc(C(N)=O)cc2C)ccc1CNCCC(C)C [4B-90] and answer again.
1.66

Now consider NC(=O)c1ccc(-c2ccc(CNCCC3CCOCC3)c(F)c2)c(Cl)c1 [4B-58] and answer again.
4.02

Now consider Cc1cc(C(N)=O)ccc1-c1ccc(CN[C@H](C)c2ccccc2)cc1 [4B-41] and answer again.
14.1

Now consider Cc1cc(CNCC2CCCO2)ccc1-c1ccc(C(N)=O)cc1C (stereo not drawn) [4B-72] and answer again.
13

Now consider Cc1cc(C(N)=O)ccc1-c1ccc(CNCC2CCOCC2)c(F)c1 [4B-56] and answer again.
8.44

Now consider NC(=O)c1ccc(-c2cc(F)c(CNCCC3CCOCC3)c(F)c2)c(Cl)c1 [4B-57] and answer again.
168

Now consider NC(=O)c1ccc(-c2ccc(CNCCC3CCCCO3)cc2Cl)c(Cl)c1 (stereo not drawn) [4B-69] and answer again.
4.09

Now consider CC[C@@H](NCc1c(F)cc(-c2ccc(C(N)=O)cc2C)cc1F)c1ccccn1 [4B-52] and answer again.
15.4

Now consider CC(C)CCNCc1cc(F)c(-c2ccc(C(N)=O)cc2Cl)cc1F [4B-80] and answer again.
11.8

Now consider CCc1cc(C(N)=O)ccc1-c1ccc(CNC2Cc3ccccc3C2)cc1C [4B-77] and answer again.
0.271

Now consider Cc1cc(C(N)=O)ccc1-c1cc(F)c(CNC2CCCC2)c(F)c1 [4B-54] and answer again.
14.5

Now consider Cc1cc(C(N)=O)cnc1-c1ccc(CNC2Cc3ccccc3C2)cc1 [4C-03] and answer again.
0.822

Now consider Cc1cc(CNC2Cc3ccccc3C2)ccc1-c1ccc(C(N)=O)cc1C [4B-73] and answer again.
0.135

Now consider Cc1cc(CNCCC(C)C)ccc1-c1ccc(-c2ncn[nH]2)cc1 [7B-02] and answer again.
3.71

Now consider CCc1cc(C(N)=O)ccc1-c1ccc(CNCCC(C)C)cc1 [4B-48] and answer again.
16.1

Now consider COc1cc(-c2ccc(C(N)=O)cc2C)ccc1CNC1Cc2ccccc2C1 [4B-89] and answer again.
0.0895

* * *

molecular target: opioid receptor kappa (Homo sapiens); construct: expressed in transfected cells; assay: GTPγ[35S] binding assay, antagonism of dynorphin-A; type: biochemical; conditions: average Ki; antagonism of dynorphin-A (10 nM) at kappa opioid receptor; read-out: Kappa functional Ki (GTPγ[35S] binding)
Sequence (P41145 whole entry): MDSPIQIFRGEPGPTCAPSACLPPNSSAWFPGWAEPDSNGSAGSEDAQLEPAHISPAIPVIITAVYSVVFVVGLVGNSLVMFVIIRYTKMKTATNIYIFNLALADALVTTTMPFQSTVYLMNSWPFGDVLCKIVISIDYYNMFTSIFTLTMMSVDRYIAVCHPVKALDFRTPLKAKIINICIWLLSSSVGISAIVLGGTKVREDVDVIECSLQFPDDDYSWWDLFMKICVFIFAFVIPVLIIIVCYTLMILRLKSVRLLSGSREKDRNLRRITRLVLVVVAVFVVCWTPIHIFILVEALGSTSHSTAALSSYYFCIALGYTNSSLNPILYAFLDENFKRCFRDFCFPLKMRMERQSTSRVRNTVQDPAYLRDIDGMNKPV
Assignment: determine reported Ki for the given molecules.
Report only the number, with the unit nM understood.

Which Ki is reported for this molecule? `Cc1cc(CNCCC(C)C)ccc1-c1cccc(NS(C)(=O)=O)c1`
15.3

Now consider `CC(C)CCNCc1ccc(-c2cccc(NS(C)(=O)=O)c2)c(C#N)c1` and answer again.
13.7

Now consider `CC(C)CCNCc1ccc(-c2cccc(NS(C)(=O)=O)c2)cc1` and answer again.
45.9

Now consider `Cc1cc(NS(C)(=O)=O)ccc1-c1ccc(CNCCC(C)C)cc1` and answer again.
1450

* * *

target: opioid receptor mu (Homo sapiens, UniProt P35372); construct: expressed in transfected cells; assay: GTPγ[35S] binding assay, antagonism of endorphin; type: biochemical; conditions: read-out: Mu functional Ki (GTPγ[35S] binding)
Sequence (P35372 whole entry): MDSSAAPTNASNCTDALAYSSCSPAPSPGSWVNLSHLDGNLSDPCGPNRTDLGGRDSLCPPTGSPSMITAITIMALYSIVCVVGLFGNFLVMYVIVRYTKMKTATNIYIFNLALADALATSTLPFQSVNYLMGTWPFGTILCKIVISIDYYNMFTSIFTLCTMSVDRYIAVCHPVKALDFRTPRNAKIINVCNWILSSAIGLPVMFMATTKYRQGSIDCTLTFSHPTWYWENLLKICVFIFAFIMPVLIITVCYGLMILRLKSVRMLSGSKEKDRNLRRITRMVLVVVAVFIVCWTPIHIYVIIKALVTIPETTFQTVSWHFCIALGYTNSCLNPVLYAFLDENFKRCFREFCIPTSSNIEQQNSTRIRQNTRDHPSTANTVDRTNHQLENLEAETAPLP
So basically: is Ki under 5 nM? Then Yes. Not under? Then No.

Hello, I'm reviewing records and need to know if Ki of `CS(=O)(=O)Nc1ccc(-c2ccc(CNC3Cc4ccccc4C3)c(F)c2)cc1` is below 5 nM. Could you check?
No

Now consider `NC(=O)c1cnc(-c2ccc(CNC3Cc4ccccc4C3)cc2)c(Cl)c1` and answer again.
Yes

Now consider `NC(=O)c1ccc(-c2ccc(CNCCC3CCOCC3)c(F)c2)c(Cl)c1` and answer again.
No

Now consider `Cc1cc(CNC2Cc3ccccc3C2)ccc1-c1ccc(C(N)=O)cc1C` and answer again.
Yes

Now consider `Cc1cc(C(N)=O)cnc1-c1ccc(CNC2Cc3ccccc3C2)cc1` and answer again.
Yes

Now consider Cc1cc(C)n(CC(C)NCc2ccc(-c3cccc(C(N)=O)c3)c(Cl)c2)n1 (stereo not drawn) and answer again.
No

* * *

Assignment: determine reported Ki for the given compounds.
target: opioid receptor delta (Homo sapiens, UniProt P41143); construct: expressed in transfected cells; assay: GTPγ[35S] binding assay, antagonism of BW-373U86; type: biochemical; details: read-out: Delta functional (GTPγ[35S] binding Ki)
Structures can show the parent of a compound that is named as a salt.
Report only the number, with the unit nM understood.

Which Ki is reported for this compound? `NC(=O)c1cccc(-c2ccc(CNCCC3CCOCC3)cc2Cl)c1`
2.79

Now consider `NC(=O)c1cccc(-c2cc(F)c(CNC3Cc4ccccc4C3)c(F)c2)c1` and answer again.
5.5

Now consider `Cc1cc(C(N)=O)ccc1-c1ccc(CN[C@@H]2CCCc3ccccc32)cc1` and answer again.
26.3

Now consider `CC(C)CCNCc1ccc(-c2ccc(C(N)=O)cc2C(F)(F)F)cc1` and answer again.
15.4

Now consider `Cc1cc(C(N)=O)ccc1-c1ccc(CNC(C)(C)c2ccccc2)cc1` and answer again.
19.5

Now consider NC(=O)c1cccc(-c2ccc(CNC3CCc4ccccc43)cc2Cl)c1 (stereo not drawn) and answer again.
21.3

Now consider `Cc1cc(C(N)=O)ccc1-c1ccc(CNC2Cc3ccccc3C2)cn1` and answer again.
1.24

Now consider `Cc1cc(C(N)=O)ccc1-c1ccc(CNCc2cccc(F)c2)cc1` and answer again.
1.13

Now consider `Cc1cc(C(N)=O)ccc1-c1ccc(CNC2Cc3ccccc3C2)c(F)c1` and answer again.
0.0326

Now consider `Cc1cc(C(N)=O)ccc1-c1ccc(CNCCC2CCOCC2)cc1` and answer again.
0.893

Now consider `CC(C)CCNCc1ccc(-c2c(F)cc(C(N)=O)cc2F)cc1` and answer again.
16.9

Now consider `Cc1cc(C(N)=O)ccc1-c1ccc(CNCc2ccccc2F)cc1` and answer again.
5.72

Now consider NC(=O)c1cccc(-c2ccc(CNCCC3CCCCO3)cc2Cl)c1 (stereo not drawn) and answer again.
3.27

Now consider Cc1cc(C(N)=O)ccc1-c1ccc(CNCC2Cc3ccccc3O2)cc1 (stereo not drawn) and answer again.
1.09

Now consider `Cc1cc(C(N)=O)ccc1-c1cc(F)c(CNC2Cc3ccccc3C2)c(F)c1` and answer again.
0.0993

Now consider `Cc1cc(C(N)=O)ccc1-c1c(F)cc(CNC2Cc3ccccc3C2)cc1F` and answer again.
5.28

Now consider `Cc1cc(C(N)=O)ccc1-c1ccc(CNCCOc2ccccc2)cc1` and answer again.
0.751

Now consider `NC(=O)c1ccc(-c2ccc(CNC3Cc4ccccc4C3)cn2)c(Cl)c1` and answer again.
3.45

Now consider `Cc1cc(C(N)=O)ccc1-c1ccc(CNC2Cc3ccccc3C2)nc1` and answer again.
0.868

Now consider `CC(C)CCNCc1ccc(-c2ccc(C(N)=O)cc2Cl)cc1` and answer again.
6.12

Now consider `Cc1cc(C(N)=O)cc(C)c1-c1ccc(CNCCC(C)C)cc1` and answer again.
6.27

Now consider `Cc1cc(C(N)=O)ccc1-c1ccc(CNC2(c3cccc(Cl)c3)CC2)cc1` and answer again.
46.3

Now consider `Cc1cc(C(N)=O)ccc1-c1ccc(CNCCOC(C)C)cc1` and answer again.
6.42

Now consider `Cc1cc(C(N)=O)ccc1-c1ccc(CN2Cc3ccccc3C2)cc1` and answer again.
159

Now consider `Cc1cc(C(N)=O)cc(C)c1-c1ccc(CNC2Cc3ccccc3C2)cc1` and answer again.
0.0696

Now consider Cc1cc(C(N)=O)ccc1-c1cc(F)c(CNCCC(C)C)c(F)c1.Cl [E1-01, hydrochloride salt] and answer again.
1.7

Now consider Cc1cc(C(N)=O)ccc1-c1ccc(CNCCC(C)C)c(Cl)c1 [E3-01, hydrochloride salt] and answer again.
1.53

Now consider `CC(C)CCNCc1ccc(-c2ccc(C(N)=O)c(F)c2)cc1` and answer again.
355

Now consider Cc1cc(C(N)=O)ccc1-c1ccc(CNC(C)c2ccc3ccccc3c2)cc1 (stereo not drawn) and answer again.
2.98

Now consider `Cc1cc(C(N)=O)ccc1-c1ccc(CNCc2ccccc2)cc1` and answer again.
4
